Taken from ChEMBL document CHEMBL1122797.

Let's look at some compounds and their measured Zone of inhibition.
System: Pseudomonas aeruginosa
Assay: Evaluation of in vitro antimicrobial activity with an agar diffusion assay against Pseudomonas aeruginosa; also: test concentration or dose not given here
Assay type: functional
Show the value, then the unit it is measured in.

>>> result("CC(=O)n1oc(=O)c2ccccc21")
"38 mm"
>>> result("Oc1onc2ccccc12")
"30 mm"
>>> result("CC(=O)OCn1oc(=O)c2ccccc21")
"32 mm"
>>> result("CNC(=O)OCn1oc(=O)c2ccccc21")
"39 mm"
>>> result("CS(=O)(=O)n1oc(=O)c2ccccc21")
"31 mm"
>>> result("CNC(=O)n1oc(=O)c2ccccc21")
"24 mm"
>>> result("CC(C)C(=O)OCn1oc(=O)c2ccccc21")
"22 mm"
>>> result("CC(C)(C)C(=O)OCn1oc(=O)c2ccccc21")
"20 mm"
>>> result("O=C(CCCCCI)OCn1oc(=O)c2ccccc21")
"17 mm"
>>> result("Cc1ccc(C(=O)OCn2oc(=O)c3ccccc32)cc1")
"22 mm"

Query string: Give the measured Zone of inhibition of O=C(COc1ccccc1)OCn1oc(=O)c2ccccc21 .
Result string: 19 mm

----------
Measured Zone of inhibition accompanies every entry in the list below.
Tested on: Bacillus subtilis
Test: Evaluation of in vitro antimicrobial activity with an agar diffusion assay against Bacillus subtilis
Assay type: functional
// units = mm; emit number, no label

>>> numeric_result("O=C(COc1ccccc1)OCn1oc(=O)c2ccccc21")
20
>>> numeric_result("Oc1onc2ccccc12")
22
>>> numeric_result("CC(C)C(=O)OCn1oc(=O)c2ccccc21")
17
>>> numeric_result("CC(=O)n1oc(=O)c2ccccc21")
24

Query string: Can you share its Zone of inhibition? I mean this compound: CC(=O)OCn1oc(=O)c2ccccc21
Result string: 24

Query string: And what about the compound CNC(=O)OCn1oc(=O)c2ccccc21 ?
Result string: 16

----------
Below, each of the compounds is paired with its reported Zone of inhibition value.
Assay: Evaluation of in vitro antimicrobial activity with an agar diffusion assay against Salmonella schottmuelleri
Assay type: functional
The answer is to be given in mm; state only the numeric part.

Consider the following illustrative entries.
>>> numeric_result("CC(C)C(=O)OCn1oc(=O)c2ccccc21")
23
>>> numeric_result("CC(=O)OCn1oc(=O)c2ccccc21")
22
>>> numeric_result("CC(=O)n1oc(=O)c2ccccc21")
20

Query string: For the compound Cc1ccc(C(=O)OCn2oc(=O)c3ccccc32)cc1 , what Zone of inhibition is on record?
Result string: 17

Query string: And then CNC(=O)OCn1oc(=O)c2ccccc21 , what is it?
Result string: 28

Query string: Now try CC(C)(C)C(=O)OCn1oc(=O)c2ccccc21 .
Result string: 22

Query string: Another compound: O=C(COc1ccccc1)OCn1oc(=O)c2ccccc21
Result string: 20

Query string: Entry to check: Oc1onc2ccccc12
Result string: 26

----------
Recorded measurements of Zone of inhibition, one per entry
Tested on: Bacillus subtilis
Assay: Evaluation of in vitro antimicrobial activity with an agar diffusion assay against Bacillus subtilis
Type: functional
Write the answer as a number in mm, unit excluded.

Here's what some known entries look like.
>>> numeric_result("CC(C)(C)C(=O)OCn1oc(=O)c2ccccc21")
18
>>> numeric_result("Cc1ccc(C(=O)OCn2oc(=O)c3ccccc32)cc1")
20

Query string: What value of Zone of inhibition has been reported for the following compound? O=C(CCCCCI)OCn1oc(=O)c2ccccc21
Result string: 15
